# system.under.test: RAD51 (Homo sapiens, UniProt Q06609)
# Sequence (Q06609 1-339): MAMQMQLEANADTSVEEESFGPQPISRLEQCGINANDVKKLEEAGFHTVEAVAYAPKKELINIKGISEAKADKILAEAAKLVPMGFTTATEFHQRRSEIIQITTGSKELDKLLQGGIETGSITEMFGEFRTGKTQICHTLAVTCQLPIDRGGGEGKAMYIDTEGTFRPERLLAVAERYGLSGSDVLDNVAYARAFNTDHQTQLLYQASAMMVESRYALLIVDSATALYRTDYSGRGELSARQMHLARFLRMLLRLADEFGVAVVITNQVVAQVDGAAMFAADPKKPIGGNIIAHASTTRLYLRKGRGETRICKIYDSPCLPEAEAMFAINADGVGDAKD
# measurement.protocol: Fluorescence polarization-based DNA binding assay (RAD51-ssDNA binding)
# Type: biochemical
# condition.summary: Table 2; Stim = stimulator
pIC50: −log10 of the molar value.
endpoint.name: pIC50

Nc1ccc(-c2nc3ccccc3n3cccc23)cc1 [Compound 9g, 4-(Pyrrolo[1,2-a]quinoxalin-4-yl)aniline] : < 4.00

// field: pIC50; key: c1cncc(-c2nc3ccccc3n3cccc23)c1 [Compound 11a] ; value = < 4.00
